system: MOLT-4; test: NCI tumour cell line growth inhibition, 48 h
Calls of active or inactive are those of the source. Rule as the data show it: active = GI50 up to about 1.1 µM and inactive = higher.
measure: GI50

Here is how some compounds turned out for GI50.
- compound: "O=S(=O)(/C=C/CS(=O)(=O)c1ccccc1)c1ccccc1"
  value-observed: "21.2 µM (inactive)"
- compound: "O=C1NC(=O)C(c2c[nH]c3cc(Br)ccc23)=C1c1cnc[nH]1"
  value-observed: "23.9 µM (inactive)"

// batch mode: one GI50 value per listed entry
1. CC(=O)OCC1OC(n2c(=O)n(-c3ccccc3)c(=O)c3ccccc32)C(OC(C)=O)C(OC(C)=O)C1OC(C)=O (stereo unspecified)
2. O=C1CCSC2=C1SCc1sccc12
3. Cc1cc(C)c2c(O)cc(-c3cccc4ccccc34)nc2n1
4. COc1ccc([C@]23CCN4COC[C@@H]([C@H]42)C2(CC3)OCC(C)(C)CO2)cc1OC
5. c1ccc2c(c1)nc1n2CCSC1
6. Nc1nc(NC2C=C(CO)C(O)C2O)c([N+](=O)[O-])c(=O)[nH]1 (stereo unspecified)

Result ::
["> 100 µM (inactive)", "> 100 µM (inactive)", "0.863 µM (active)", "> 100 µM (inactive)", "> 100 µM (inactive)", "> 100 µM (inactive)"]

# map each compound to its GI50
1. N#CC1C[C@@H]2CC3(CCC2CN1C(=O)c1ccccc1)OCCO3 (stereo partly specified)
2. COc1ccccc1CC1(O)OC(=O)c2ccccc21 (stereo unspecified)
3. CCn1c2ccc(O)c(C(=O)OC)c2c2cc3ccccc3c(O)c21

Result ::
1. > 100 µM (inactive)
2. > 100 µM (inactive)
3. 7.87 µM (inactive)

Parameters: items (list). Returns: GI50 for each item.
1. CC(=O)OC1CCC2(C)C(=CC(C3C=C4CC(OC(C)=O)CCC4(C)C4=C3C3CC5OC6(CCC(C)CO6)C(C)C5C3(C)CC4)C3=C2CCC2(C)C3CC3OC4(CCC(C)CO4)C(C)C32)C1 (stereo unspecified)
2. CC(Cc1ccccc1)NC1=NCCO1 (stereo unspecified)
3. COc1ccccc1C1c2cc3c(cc2OC(O)(CO)C1C(=O)O)OCO3.COc1ccccc1C1c2cc3c(cc2OC2(O)COC(=O)C12)OCO3 (stereo unspecified)
4. N#CC(C#N)=C1CCC2C(=C(C#N)C#N)CCC12 (stereo unspecified)
5. OC1c2ccccc2CCC1C(O)(C(F)(F)F)C(F)(F)F (stereo unspecified)
6. COc1cc(CNc2nc3ccc(C(F)(F)F)cc3nc2-c2ccccc2)cc(OC)c1OC
7. O=[N+]([O-])CCc1cccc([N+](=O)[O-])c1

Result ::
2.07 µM (inactive)
47 µM (inactive)
70 µM (inactive)
> 100 µM (inactive)
> 100 µM (inactive)
4.4 µM (inactive)
> 100 µM (inactive)

# per-item lookup of GI50; items listed below
1. Clc1ccc(/C=C/c2nc(-c3ccccc3)cn3c2nc2ccccc23)cc1Cl
2. O=c1c2c3c(sc2nc2n1N=CN(c1ccc(F)cc1)C2)CCCC3
3. CN(C)c1ccc(/C=N/NC2=N/C(=C\c3ccco3)C(=O)N2)cc1
4. Cc1ccc2[nH]c(=O)c(-c3cnc(O)nn3)c(O)c2c1

Result ::
1. 46.9 µM (inactive)
2. > 100 µM (inactive)
3. > 100 µM (inactive)
4. 5.06 µM (inactive)

Dear reader, for each entry below, please note its GI50.
1. COC(=O)/C=C1/N=C(N(C)/N=C/c2ccccc2)NC1=O
2. CC(=O)OC1CC[C@]2(C)C3CC[C@@]4(C)C(CCC4[C@H](C)CCCC(C)C)[C@@H]3CCC2(Br)C1 (stereo partly specified)
3. C#CCOC(=O)c1ccccc1O
4. CCOC(=O)n1cncc1CC(NC(=O)Cc1c(C(=O)C=C(C)C)[nH]c2ccccc12)C(=O)OC (stereo unspecified)
5. COc1ccc(C[C@H]2COC(=O)[C@@H]2Cc2cccc(Br)c2)cc1OC

Result ::
> 100 µM (inactive)
9.98 µM (inactive)
> 100 µM (inactive)
20 µM (inactive)
8.75 µM (inactive)

Batch of 3 compounds: report GI50 for each.
1. CCOC(=O)c1cc2c(C(=O)c3ccc([N+](=O)[O-])cc3)c(C(C)=O)ccc2[nH]1
2. NC(=O)c1ncn2c(=O)n(CCCl)nnc12 [MITOZOLOMIDE]
3. O=C(O)C1CC2C=CCC(C2)C1 (stereo unspecified)

Result ::
["> 100 µM (inactive)", "45.2 µM (inactive)", "> 100 µM (inactive)"]

Please report GI50 for every entry that follows.
1. O=c1cc(-c2ccccc2)[nH]c2c(F)ccc(F)c12
2. CCOC1C(Br)Cn2c(=O)c3cc4ccccc4cc3c(=O)n2C1C (stereo unspecified)
3. COc1ccc(/N=C2\C(=N/c3ccc(OC)cc3)N(S(=O)(=O)c3ccccc3)C(=S)N2c2ccc(OC)cc2)cc1
4. COc1ccc(C(=O)C(CC2C(=O)CC(C)(C)C(C(=O)C(=O)Nc3c(C)cccc3C)C2=O)c2ccc(OC)cc2)cc1 (stereo unspecified)
5. CCOC(=O)CC1C(O)C(=O)N(C)C1c1ccccc1 (stereo unspecified)

Result ::
["46.2 µM (inactive)", "29.4 µM (inactive)", "> 100 µM (inactive)", "> 100 µM (inactive)", "> 100 µM (inactive)"]

# return GI50 for each item in the list
1. NS(=O)(=O)c1ccc(/N=N/c2ccc(O)c(C(=O)O)c2)cc1 [SALAZOSULFAMIDE]
2. O=C(Cc1cc(=O)oc2cc(O)ccc12)N/N=C/c1ccc(N(CCCl)CCCl)cc1
3. CC(=O)N1CC(C)(C)c2c1cc(C)c(O)c2C
4. CC(C)(Oc1ccc2c(=O)cc(-c3ccccc3)oc2c1)C(=O)N1CCN(c2ccccc2)CC1
5. CCCCCCc1cc2cc(C(=O)Nc3ccccc3)c(=N)oc2cc1O
6. O=C(C1=C(C(=O)c2ccccc2)SC2(S1)C(C(=O)c1ccccc1)=C(C(=O)c1ccccc1)Sc1c2ssc1=O)c1ccccc1

Result ::
1: > 100 µM (inactive); 2: 15.3 µM (inactive); 3: > 100 µM (inactive); 4: 2.6 µM (inactive); 5: 2.16 µM (inactive); 6: 1.11 µM (active)
